# Tested on: SK-MEL-5 melanoma
# experimental-protocol: NCI-60 one-dose screen, 48 h
# condition-parameters: 10 µM unless noted
About 83,000 compounds went through this panel and 20% of them were active in at least one assay; those are over-represented in the sample as a whole. Calls of active or inactive are those of the source. How the source made its calls: active means growth percent below 10; inactive means the rest.
Field 'call' accepts true (1) (active), false (0) (inactive)

Q: Outcome? `CC[C@H](C)[C@H](NC(=O)[C@H]1CCCCN1C)C(=O)N(C)[C@H](C[C@@H](OC(C)=O)c1nc(C(=O)N[C@@H](Cc2ccccc2)C[C@H](C)C(=O)OC)cs1)C(C)C`
Result: true (1)

Q: Query: recorded result category for CCN(CC)c1ccc2c(c1)OC(N)=C(C#N)C2c1cc(OC)c2c(c1)OCO2 (stereo not drawn) in this test
Result: true (1)

Q: # outcome recorded in this test, key = CC(CO)NC1CCCCC1 (stereo not drawn)
Result: false (0)

Q: Hello, I am checking results. What call was entered for CC(=O)C(c1c(O)c2ccccc2oc1=O)c1cc(=O)oc2c1ccc1ccccc12 (stereo not drawn) ?
Result: false (0)

Q: # lookup: test call for `CN1C(=O)C(=Cc2cn(CCCCCCn3c4ccccc4c(=O)c4ccccc43)c3ccccc23)C(=O)N(C)C1=O`
Result: false (0)

Q: Given `COc1ccc(C(=O)c2sc3nc4c(cc3c2N)N2CCC4CC2)cc1OC` , state the outcome it received in this test.
Result: false (0)

Q: Please state the recorded outcome for this compound: `COc1ccc(S(=O)(=O)N(Cc2ccc3c(c2)C=CC(C)(C)O3)c2ccccc2)cc1OC`
Result: true (1)

Q: Returns: the outcome recorded for `C[CH2][Sn]([Cl])([Cl])[CH2]C.Oc1ccccc1C=NCCN=Cc1ccccc1O` in this assay.
Result: false (0)

Q: Tell me the recorded outcome of this test for CCCCOc1ccc(C(N)Cc2ccccc2)cc1 (stereo not drawn) .
Result: false (0)

Q: Please state the recorded outcome for this compound: CCOC(=O)CCC(NC(=O)C(Cc1ccc(N(CCCl)CCCl)cc1)NC=O)C(=O)OCC (stereo not drawn)
Result: true (1)

Q: What did this assay record as the result for C=CC12CCN(CC1)C(C(O)c1ccnc3ccc(OC)cc13)C2 (stereo not drawn) ?
Result: false (0)

Q: # fetch the recorded call for `c1ccc(CSC(c2ccccc2)c2ccccc2)cc1` here
Result: false (0)

Q: Test call, this compound: `ClCCN(CCCl)c1ccc(/C=N/Nc2ncnc3nc[nH]c23)cc1`
Result: false (0)

Q: Field: outcome | Entry: Oc1ccc2c3c1OC1[C@@H](O)CC[C@@]4(O)[C@@H](C2)N(CC2CCC2)CC[C@]314 (stereo partly drawn)
Result: false (0)

Q: // outcome(item) with item = `COC(=O)[C@@]1(O)C[C@H]2O[C@]1(C)n1c3ccccc3c3c4c(c5c6ccccc6n2c5c31)C(=O)NC4`
Result: true (1)

Q: # lookup: test call for `COc1ccc(C/C(C)=C(\c2ccc(OCCN3CCOCC3)cc2)c2ccc(OC(=O)Cc3ccccc3)cc2)cc1`
Result: true (1)

Q: Called result for `CCOC(=O)[C@@H](C)C[C@H](Cc1ccccc1)NC(=O)c1csc([C@@H](C[C@H](C(C)C)N(C)C(=O)[C@@H](NC(=O)[C@H]2CCCCN2C)C(C)(C)C)OC(C)=O)n1`
Result: true (1)

Q: Entry `CC1(C)N=C(N)N=C(N)N1c1cccc(CCCCc2ccc(Cl)c(S(=O)(=O)F)c2)c1` : call = ?
Result: false (0)

====

# Tested on: SNB-19 CNS
# experimental-protocol: NCI-60 one-dose screen, 48 h (100 = growth as untreated, 0 = no growth, -100 = all killed)
# condition-parameters: 10 µM unless noted
# Method: Growth inhibition of the SNB-19 human tumor cell line is measured as a screen for anti-cancer activity. Cells are grown in 96 well plates and exposed to the test compound for 48 hours. Compounds are tested at a single concentration, which is 10^-5 M for most compounds. The reported endpoint is percent growth (GI% or GIPRCNT), where numbers from 0 - 100% represent growth inhibition, and numbers from -100% - 0 represent cell death. For example, a value of 40 represents 60% growth inhibition. […]
Compounds without any hit were thinned out: in the full panel of roughly 83,000, 20% have a hit.
assay-readout: growth (%)
Quick reminder: number only, in %, skip the unit.

Summary for this molecule, `COC(=O)[C@@]1(O)C[C@H]2O[C@]1(C)n1c3ccccc3c3c4c(c5c6ccccc6n2c5c31)C(=O)NC4` : growth is -27.9

Sure, the documented growth for `C[C@@]1(CCCCCCCCCc2ccc(O)cc2)C[C@]2(C)OC(=O)C[C@@H]2OO1` is 96.6

So for `C[C@@]12CC[C@@H](O)C[C@@H]1CC[C@H]1[C@H]2CC[C@@]2(C)[C@H](c3ccc(=O)oc3)CC[C@@]12O` , the logged growth turned out to be -99.8

// growth value for `CC1(C)C(C(=O)c2cn(CCCCF)c3ccccc23)C1(C)C` : 104

Looking up O=C1OCCC1Br (stereo not drawn) , I found its growth recorded as 104

Note to self: growth recorded for `O=P(N1CC1)(N1CC1)N1CCc2ccccc21` was 102

Reported growth ( `CC[C@H](C)[C@H](NC(=O)NC(C)(C)C)C(=O)N(C)[C@H](C[C@@H](OC(C)=O)c1nc(C(=O)N[C@@H](Cc2ccccc2)C[C@H](C)C(=O)OC)cs1)C(C)C` ) = 47.6

The molecule `COC(=O)[C@@H](C)C[C@H](Cc1ccccc1)NC(=O)c1csc([C@@H](C[C@H](C(C)C)N(C)C(=O)C2(NC(=O)[C@H]3CCCCN3C)CCC2)OC(C)=O)n1` showed growth equal to 73.2

====

# Tested on: SF-295 CNS
# experimental-protocol: NCI-60 one-dose screen, 48 h (100 = growth as untreated, 0 = no growth, -100 = all killed)
# condition-parameters: 10 µM unless noted
This is part of a sample that, as a whole, favours compounds with a hit. Of some 83,000 tested, about 20% had one in any assay.
assay-readout: growth (%)
Report the value in % with no unit label.

Lab note: measured growth of OCCNC(Cc1ccccc1)c1ccc2c(c1)OCO2 (stereo unspecified) was 90

Note to self: growth recorded for `C[C@]12C[C@@H](CO)[C@H](O)C[C@@H]1CC[C@@H]1[C@@H]2CC[C@]2(C)[C@@H](O)CC[C@@H]12` was 113

Item: `CC(=O)Nc1nc2c(s1)CC[C@@]1(C)C2=CC[C@H]2[C@@H]3CC[C@H](O)[C@@]3(C)CC[C@@H]21` | growth: 36.4

Entry under test: `CCOC(=O)N[C@H]1CCc2c(Br)c(OC)c(OC)c(OC)c2-c2ccc(SC)c(=O)cc21` . Its growth was 10.8

Entry CO[C@H](C(=O)O)[C@@H]1Cc2cc3cc(OC4CC(OC5CC(O)C(O)C(C)O5)C(O)C(C)O4)c(C)c(O)c3c(O)c2C(=O)[C@H]1OC1CC(OC2CC(OC3CC(C)(O)C(O)C(C)O3)C(O)C(C)O2)C(O)C(C)O1 (stereo partly specified) ; growth = 11.2

The reported value for CC12CC=CCC1CCC1C2CCC2(C)C(c3ccc(=O)oc3)CCC12O (stereo unspecified) in terms of growth is -36.7

Note to self: growth recorded for `Cc1cc(N(CCCl)CCCl)ccc1/C=N\NC(=O)c1ccncc1` was 56.2

Lab note: `COC(=O)[C@@H](C)C[C@H](Cc1ccccc1)NC(=O)c1nc([C@@H](C[C@H](C(C)C)N(C)C(=O)[C@@H](NC(=O)[C@H]2C[C@H](O)CCN2C)C(C)C)OC(C)=O)sc1C(C)C` gave growth of -16.8

growth in this record for `NC(CCl)CCl` : 93.9

// growth value for `CCCC[C@H](NC(=O)[C@H]1CCCN1C)C(=O)N(C)[C@H](C[C@@H](OC(C)=O)c1nc(C(=O)N[C@@H](Cc2ccccc2)C[C@H](C)C(=O)OCC)cs1)C(C)C` : 13.3

Recorded growth (molecule `O=C(N/N=C\c1ccc(N(CCCl)CCCl)cc1)c1cccc([N+](=O)[O-])c1` ): 88.4

The molecule CCCCCSC1C2C(=O)C(Br)=CC13CCNc1c(O)c4c5c(c13)=[N+]2CCC=5C=N4 (stereo unspecified) showed growth equal to 20.9

Lookup result for `COC(=O)[C@@H](C)C[C@H](Cc1ccccc1)NC(=O)c1csc([C@@H](C[C@H](C(C)C)N(C)C(=O)[C@H](C)NC(=O)[C@H]2CCCN2C)OC(C)=O)n1` ; measured growth: 31.1

Sure, the documented growth for `C[C@]12CCc3sc(-c4cccc(F)c4)nc3C1=CC[C@@H]1[C@@H]2CC[C@]2(C)C(=O)CC[C@@H]12` is -18.9

Entry `CC[C@H](NC(=O)[C@H]1CCCCN1C)C(=O)N(C)[C@H](C[C@@H](OC(C)=O)c1nc(C(=O)N[C@@H](Cc2ccccc2)C[C@H](C)C(=O)O)cs1)C(C)C` ; growth = 0.548

So, COC(=O)C1CCC(NC(=O)c2csc([C@@H](C[C@H](C(C)C)N(C)C(=O)[C@@H](NC(=O)[C@H]3CCCCN3C)C(C)C)OC(C)=O)n2)CC1 (stereo partly specified) ? Its growth was 2.5

Data point: `CC1=C(CNO)C2=C(C)C3(CC3)[C@@](C)(O)C(=O)C2=C1` ; growth = -4.83

// growth lookup, molecule = `CC(=O)O[C@H](C[C@H](C(C)C)N(C)C(=O)[C@@H](NC(=O)[C@H]1CCCCN1C)C(C)C)c1nc(C(=O)N[C@@H](Cc2ccccc2)C[C@H](C)C(=O)O)c(CCOCc2ccccc2)s1` , result: -19.8

Input `CC[C@H](C)[C@H](NC(=O)c1ccccn1)C(=O)N(C)[C@H](C[C@@H](OC(C)=O)c1nc(C(=O)N[C@@H](Cc2ccccc2)C[C@H](C)C(=O)OC)cs1)C(C)C` . Output growth: 7.86

Recorded result, `COc1cccc2c1c(C(=O)C(=O)Nc1ccn[nH]1)cn2Cc1ccc(F)cc1` , growth: 143

`COc1cc(C=Nc2cccc(C(=O)O)c2)ccc1N(CCCl)CCCl` has a reported growth of 98.3

# molecule `[Cl][Hg][n]1c(-c2ccco2)nc2ccccc21` ; its growth = 106

Quick note, growth for Cn1cccc1C1CC(=O)N(CCC[Se]C#N)C1=O (stereo unspecified) landed at -58.2

Field growth (entry `COc1ccc2c(c1)c(-c1nc(-c3c[nH]c4ncccc34)cs1)cn2CCN1CCOCC1` ) reads 62

Record `Clc1ccc(CO/N=C(\Cn2ccnc2)c2ccc(Cl)cc2Cl)c(Cl)c1` . Reported growth: -13.3

`COC(=O)[C@@H](C)C[C@H](Cc1cn(C)c2ccccc12)NC(=O)c1csc([C@@H](C[C@H](C(C)C)N(C)C(=O)[C@@H](NC(=O)[C@H]2CCCCN2C)C(C)C)OC(C)=O)n1` yielded growth of -0.0499

Lab note: measured growth of `CC[C@H](C)[C@H](NC(=O)c1cccn1C)C(=O)N(C)[C@H](C[C@@H](OC(C)=O)c1nc(C(=O)N[C@@H](Cc2ccccc2)C[C@H](C)C(=O)OC)cs1)C(C)C` was 7.85

GET /value?item= Cc1ccc2c(C(C[N+](=O)[O-])c3cccs3)c(-c3ccccc3)[nH]c2c1 (stereo unspecified) &field=growth returns 7.69

Briefly, growth measured for O=[N+]([O-])CC(c1ccccc1Cl)c1c(-c2ccccc2)[nH]c2ccccc12 (stereo unspecified) : 24.3

The value of growth measured for the molecule `COc1ccc(S(=O)(=O)N(Cc2ccc3c(c2)C=CC(C)(C)O3)c2ccccc2)cc1OC` turned out to be 70.6

// sample `COc1ccc2c(c1)c(-c1nc(-c3cn(C)c4ncccc34)cs1)cn2CCN1CCOCC1` , its growth was 49.3
